Target: recombinant soluble homotrimeric HA, A/Anhui/1/05 (H5N1) (influenza A virus A/Anhui/1/2005 (H5N1))
Assay: microarray, trimeric HA, transfection supernatant
Settings: remark: other sources report otherwise
measured_metric: Trimeric HA Binding RLU (RLU)
Express your answer in RLU, writing the number without its unit.

Recorded results for 3 binders are shown here.
{"columns": ["binder", "Trimeric HA Binding RLU [RLU]"],
 "data": [
  ["TCN-545 (5082_I15) (antibody, V domains shown) VH: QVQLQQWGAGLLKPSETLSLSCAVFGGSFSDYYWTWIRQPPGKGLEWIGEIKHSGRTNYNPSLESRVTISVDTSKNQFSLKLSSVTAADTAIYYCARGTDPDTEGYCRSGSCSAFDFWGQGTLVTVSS VL: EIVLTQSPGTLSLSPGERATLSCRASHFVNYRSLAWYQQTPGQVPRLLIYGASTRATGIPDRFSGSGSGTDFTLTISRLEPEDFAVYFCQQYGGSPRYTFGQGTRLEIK", 4880],
  ["TCN-546 (5089_L08) (antibody, V domains shown) VH: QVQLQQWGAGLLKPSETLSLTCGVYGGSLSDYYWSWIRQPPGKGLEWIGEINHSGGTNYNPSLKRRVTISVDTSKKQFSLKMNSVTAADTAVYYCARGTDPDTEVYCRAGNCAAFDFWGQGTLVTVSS VL: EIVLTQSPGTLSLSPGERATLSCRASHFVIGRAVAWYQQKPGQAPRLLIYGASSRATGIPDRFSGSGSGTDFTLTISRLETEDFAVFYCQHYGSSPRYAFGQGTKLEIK", 33300],
  ["TCN-557 (5081_A04) (antibody, V domains shown) VH: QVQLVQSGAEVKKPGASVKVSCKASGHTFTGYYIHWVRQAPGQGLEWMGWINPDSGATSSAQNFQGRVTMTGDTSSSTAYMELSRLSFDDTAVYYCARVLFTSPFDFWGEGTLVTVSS VL: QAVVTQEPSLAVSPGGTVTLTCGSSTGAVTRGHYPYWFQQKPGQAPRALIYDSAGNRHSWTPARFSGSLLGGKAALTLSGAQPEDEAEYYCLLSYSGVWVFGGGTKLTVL", 20000]
]}

Request the reported Trimeric HA Binding RLU associated with TCN-539 (5056_A08) (antibody, V domains shown) VH: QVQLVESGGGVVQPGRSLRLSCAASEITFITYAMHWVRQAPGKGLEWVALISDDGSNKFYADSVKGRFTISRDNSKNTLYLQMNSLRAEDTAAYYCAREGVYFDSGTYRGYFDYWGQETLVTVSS VL: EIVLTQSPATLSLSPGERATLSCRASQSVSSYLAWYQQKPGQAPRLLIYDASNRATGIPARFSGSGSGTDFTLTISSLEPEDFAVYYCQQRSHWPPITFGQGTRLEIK 3240

Request the reported Trimeric HA Binding RLU associated with TCN-553 (5261_C18) (antibody, V domains shown) VH: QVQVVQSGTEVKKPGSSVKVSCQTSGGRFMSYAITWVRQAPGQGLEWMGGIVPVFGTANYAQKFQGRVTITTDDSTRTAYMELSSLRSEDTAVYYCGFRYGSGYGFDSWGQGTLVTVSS VL: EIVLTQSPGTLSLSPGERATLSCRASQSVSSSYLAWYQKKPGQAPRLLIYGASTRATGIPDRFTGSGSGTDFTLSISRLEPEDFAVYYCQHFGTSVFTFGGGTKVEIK 8550
